format: in vivo, human; conditions: both, human, plasma, oral, 50 mg, AUC0‐inf, LS Mean, plasma acalabrutinib; ANOVA, exponentiated LSM; Moderate, n 6
reported_endpoint: AUC

* CC#CC(=O)N1CCC[C@H]1c1nc(-c2ccc(C(=O)Nc3ccccn3)cc2)c2c(N)nccn12 [Acalabrutinib] | 326 ng·h/mL

---

type: in vivo, human; details: both, human, plasma, po, 50 mg, t1/2, total plasma acalabrutinib; single oral 50-mg dose; Mild (n = 6); arithmetic mean (SD)
reported_endpoint: half-life (h)

• CC#CC(=O)N1CCC[C@H]1c1nc(-c2ccc(C(=O)Nc3ccccn3)cc2)c2c(N)nccn12 = 2.3

---

type: in vivo, human; conditions: human, plasma, oral, 50 mg, AUC0‐inf, LS Mean, plasma acalabrutinib; ANOVA, exponentiated LSM; Severe, n 8
reported_endpoint: AUC (ng·h/mL)

- CC#CC(=O)N1CCC[C@H]1c1nc(-c2ccc(C(=O)Nc3ccccn3)cc2)c2c(N)nccn12: 1170

---

assay type: in vivo, human; details: both, human, plasma, oral, 50 mg, Cmax, LS Mean, plasma acalabrutinib; ANOVA, exponentiated LSM; Mild, n 6
reported_endpoint: Cmax

• CC#CC(=O)N1CCC[C@H]1c1nc(-c2ccc(C(=O)Nc3ccccn3)cc2)c2c(N)nccn12 = 292 ng/mL

---

format: in vivo, human; conditions: human, plasma, po, 50 mg, AUC0‐inf, total plasma acalabrutinib; single oral 50-mg dose; Severe (n = 8); geometric mean (geometric CV%)
reported_endpoint: AUC (ng·h/mL)

- CC#CC(=O)N1CCC[C@H]1c1nc(-c2ccc(C(=O)Nc3ccccn3)cc2)c2c(N)nccn12: 1170

---

assay type: in vivo, human; conditions: both, human, plasma, po, 50 mg, Vz/F, acalabrutinib; single oral 50-mg dose; Moderate (n = 6); arithmetic mean (SD)
reported_endpoint: Vd/F (L)

* CC#CC(=O)N1CCC[C@H]1c1nc(-c2ccc(C(=O)Nc3ccccn3)cc2)c2c(N)nccn12 [Acalabrutinib] | 2140

---

format: in vivo, human; conditions: both, human, plasma, po, 50 mg, AUC0‐inf, total plasma acalabrutinib; single oral 50-mg dose; Moderate (n = 6); geometric mean (geometric CV%)
reported_endpoint: AUC

* CC#CC(=O)N1CCC[C@H]1c1nc(-c2ccc(C(=O)Nc3ccccn3)cc2)c2c(N)nccn12 [Acalabrutinib] | 326 ng·h/mL
